tested on: Escherichia coli TOP10; experiment: shrunken log2 fold change of peptide-encoding DNA abundance (4.5 h post-induction vs induction); higher = less antimicrobial activity (less host growth inhibition); details: time post-induction: 4.5 h; library: site-saturation at positions 5, 18, 19, 20
Classes by shrunken log2 fold change: LOW = under -0.1, MID = from -0.1 up to 0.03, HIGH = 0.03 and over

# count of solved cases: 10
sequence_record=RRIRCRPPRLPRPRPRPPIDPRP class_label=MID
sequence_record=RRIRHRPPRLPRPRPRPMCRPRP class_label=MID
sequence_record=RRIRIRPPRLPRPRPRPYQCPRP class_label=LOW
sequence_record=RRIRARPPRLPRPRPRPAMFPRP class_label=MID
sequence_record=RRIRNRPPRLPRPRPRPGTTPRP class_label=HIGH
sequence_record=RRIRVRPPRLPRPRPRPFYTPRP class_label=HIGH
sequence_record=RRIRRRPPRLPRPRPRPMHFPRP class_label=HIGH
sequence_record=RRIRARPPRLPRPRPRPRRMPRP class_label=HIGH
sequence_record=RRIRCRPPRLPRPRPRPFNQPRP class_label=LOW
sequence_record=RRIRERPPRLPRPRPRPRLTPRP class_label=MID

### Prompt Into which category would you place RRIRDRPPRLPRPRPRPYTPPRP ?
### Response LOW

### Prompt # bin lookup: classify RRIRRRPPRLPRPRPRPIPFPRP by its shrunken log2 fold change
### Response LOW

### Prompt Form field 'band' for RRIRLRPPRLPRPRPRPVRHPRP
### Response HIGH

### Prompt Class? Entry: RRIRPRPPRLPRPRPRPVPKPRP
### Response HIGH

### Prompt Class label required: RRIRIRPPRLPRPRPRPGRCPRP
### Response MID

### Prompt Form field 'band' for RRIRIRPPRLPRPRPRPWYKPRP
### Response LOW

### Prompt Which of the defined bands does the recorded shrunken log2 fold change of RRIRHRPPRLPRPRPRPIGNPRP sit within?
### Response LOW

### Prompt Category lookup for the sequence RRIRVRPPRLPRPRPRPTCGPRP
### Response MID

### Prompt Category of RRIRDRPPRLPRPRPRPTCRPRP , please.
### Response HIGH

### Prompt Lab note: which band did RRIRARPPRLPRPRPRPMVGPRP land in?
### Response HIGH

### Prompt Which of the defined bands does the recorded shrunken log2 fold change of RRIRVRPPRLPRPRPRPHFYPRP sit within?
### Response LOW

### Prompt Dear colleague, I would appreciate it if you could identify the bin for RRIRTRPPRLPRPRPRPGRNPRP and reply at your convenience.
### Response MID

### Prompt Pick a category. Item: RRIRKRPPRLPRPRPRPYSEPRP
### Response LOW

### Prompt Which shrunken log2 fold change category applies to RRIRMRPPRLPRPRPRPSCLPRP here?
### Response MID

### Prompt Pick a category. Item: RRIRYRPPRLPRPRPRPDHPPRP
### Response MID

====

test system: Escherichia coli TOP10; assay: shrunken log2 fold change of peptide-encoding DNA abundance (4.5 h post-induction vs induction); higher = less antimicrobial activity (less host growth inhibition); details: time post-induction: 4.5 h; library: site-saturation at positions 5, 18, 19, 20
Please mark met if the recorded shrunken log2 fold change is equal to or greater than 0.0008, and not met if it falls below.

Consider the following illustrative entries.
sequence_record=RRIRRRPPRLPRPRPRPKNQPRP tested_on="Escherichia coli TOP10" class_label=met
sequence_record=RRIRSRPPRLPRPRPRPRKIPRP tested_on="Escherichia coli TOP10" class_label=met
sequence_record=RRIRKRPPRLPRPRPRPSCWPRP tested_on="Escherichia coli TOP10" class_label=met

### Prompt Reported shrunken log2 fold change at or above 0.0008? RRIRSRPPRLPRPRPRPAMFPRP
### Response not met

### Prompt Identify whether the reported shrunken log2 fold change of the following sequence is 0.0008 or greater: RRIRCRPPRLPRPRPRPDGIPRP
### Response not met

### Prompt Item RRIRIRPPRLPRPRPRPFHRPRP with shrunken log2 fold change of 0.0008 or above?
### Response not met

### Prompt Could you please find out whether RRIRCRPPRLPRPRPRPAHDPRP has shrunken log2 fold change that meets 0.0008 or exceeds it?
### Response met

### Prompt I'd appreciate it if you could say whether RRIRLRPPRLPRPRPRPANPPRP has shrunken log2 fold change at least equal to 0.0008.
### Response not met

### Prompt Hi, just wondering whether RRIRLRPPRLPRPRPRPCGGPRP shows shrunken log2 fold change of 0.0008 or higher.
### Response met

### Prompt # bool: shrunken log2 fold change of RRIRQRPPRLPRPRPRPFWIPRP >= 0.0008
### Response not met

### Prompt Could you please find out whether RRIRRRPPRLPRPRPRPSKAPRP has shrunken log2 fold change that meets 0.0008 or exceeds it?
### Response not met

====

tested on: Escherichia coli TOP10; experiment: shrunken log2 fold change of peptide-encoding DNA abundance (4.5 h post-induction vs induction); higher = less antimicrobial activity (less host growth inhibition); conditions: time post-induction: 4.5 h; library: site-saturation at positions 5, 18, 19, 20
Metric Name: shrunken log2 fold change

Use these answered entries as a reference point.
sequence_record=RRIRMRPPRLPRPRPRPSGVPRP observed_result=0.0246
sequence_record=RRIRYRPPRLPRPRPRPWTPPRP observed_result=-0.0576
sequence_record=RRIRTRPPRLPRPRPRPSAKPRP observed_result=0.227
sequence_record=RRIRRRPPRLPRPRPRPPQYPRP observed_result=1.12
sequence_record=RRIRNRPPRLPRPRPRPKERPRP observed_result=0.0296

### Prompt Given the entry RRIRSRPPRLPRPRPRPGYWPRP , what shrunken log2 fold change was observed with Escherichia coli TOP10?
### Response -0.0968

### Prompt Field: shrunken log2 fold change (Escherichia coli TOP10). Entry: RRIRARPPRLPRPRPRPRAPPRP
### Response 1.01

### Prompt Lab note: need shrunken log2 fold change with Escherichia coli TOP10 for entry RRIRSRPPRLPRPRPRPKQQPRP , please look it up.
### Response 0.741

### Prompt Could you share what shrunken log2 fold change was measured for RRIRTRPPRLPRPRPRPFWAPRP , tested on Escherichia coli TOP10?
### Response 0.346

### Prompt Reported shrunken log2 fold change for Escherichia coli TOP10, given RRIRCRPPRLPRPRPRPQASPRP ?
### Response -0.000207

### Prompt Test system Escherichia coli TOP10; read-out shrunken log2 fold change; what value for RRIRHRPPRLPRPRPRPWLVPRP ?
### Response -0.0872

====

system: Escherichia coli TOP10; test: shrunken log2 fold change of peptide-encoding DNA abundance (4.5 h post-induction vs induction); higher = less antimicrobial activity (less host growth inhibition); settings: time post-induction: 4.5 h; library: site-saturation at positions 5, 18, 19, 20
Metric Name: shrunken log2 fold change
Output: the number by itself.

sequence_record=RRIRHRPPRLPRPRPRPKIGPRP observed_result=0.0776
sequence_record=RRIRCRPPRLPRPRPRPVHHPRP observed_result=-0.176
sequence_record=RRIRVRPPRLPRPRPRPINWPRP observed_result=-0.147
sequence_record=RRIRARPPRLPRPRPRPSHLPRP observed_result=-0.41
sequence_record=RRIRSRPPRLPRPRPRPSYIPRP observed_result=-1.48

### Prompt Reported shrunken log2 fold change for RRIRPRPPRLPRPRPRPMCQPRP : what is it?
### Response 0.27

### Prompt Item RRIRDRPPRLPRPRPRPSKEPRP has what recorded shrunken log2 fold change?
### Response -0.031

### Prompt I'd like to know its shrunken log2 fold change. The sequence in question is RRIRFRPPRLPRPRPRPEKAPRP
### Response 0.0584

### Prompt So what does the record say about shrunken log2 fold change for RRIRTRPPRLPRPRPRPWWVPRP ?
### Response -0.0227

### Prompt # shrunken log2 fold change lookup, item RRIRMRPPRLPRPRPRPKGCPRP
### Response -0.0257

### Prompt Record request: shrunken log2 fold change value, item RRIRIRPPRLPRPRPRPDNNPRP
### Response -0.376

====

system: Escherichia coli TOP10; assay: shrunken log2 fold change of peptide-encoding DNA abundance (4.5 h post-induction vs induction); higher = less antimicrobial activity (less host growth inhibition); settings: time post-induction: 4.5 h; library: site-saturation at positions 5, 18, 19, 20;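 further: peptides expressed intracellularly from a pBAD plasmid library in pooled LB shake-flask culture, induced with 0.3% L-arabinose, DNA abundance read by NGS, three biological replicates, DESeq2 with apeglm shrinkage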
Is shrunken log2 fold change at least 0.07? Then y. If not, n.

Examples from the recorded data:
sequence_record=RRIRLRPPRLPRPRPRPTKGPRP class_label=y
sequence_record=RRIRQRPPRLPRPRPRPPWAPRP class_label=y
sequence_record=RRIRCRPPRLPRPRPRPQRGPRP class_label=y
sequence_record=RRIRRRPPRLPRPRPRPHQLPRP class_label=n
sequence_record=RRIRIRPPRLPRPRPRPRARPRP class_label=y

### Prompt Is shrunken log2 fold change for RRIRVRPPRLPRPRPRPKGRPRP at or above 0.07?
### Response y

### Prompt Please check the record RRIRERPPRLPRPRPRPCADPRP and state if its shrunken log2 fold change is at or above 0.07.
### Response n

These entries and their values trace back to the supplement of paper PMC9112550.
